From: PubChem BioAssay (NCI)

// reported TGI per item
Test system: CAKI-1 renal
Assay: NCI tumour cell line growth inhibition, 48 h

Consider the worked cases shown below.
COc1ccc(S(=O)(=O)N2CC(C)(C)CN(S(=O)(=O)c3ccc(OC)cc3)C2C(=O)NO)cc1
> 20 µM
Cc1cccc2c(=O)c([Se]c3coc4c(C)cccc4c3=O)coc12
48.4 µM
CCN(Cc1cccc(F)c1)c1ccc(CO)c(Cl)c1
> 36.3 µM
CCOC(=O)C1(C/C=C(/C)Cl)CCCC1=O (centres undefined)
> 100 µM
NC(N)=N/N=C/c1nc2n(c1[N+](=O)[O-])CCS2
> 100 µM
Cn1cc(C2=C(c3cn(CCCCN)c4ccccc34)C(=O)NC2=O)c2ccccc21
> 25 µM
CCN(CC)CC1CCCCN1CC(=O)N1c2ccccc2NC(=O)CC1C (centres undefined)
> 100 µM
Cc1ccc(S(=O)(=O)NC(=O)C2C(=O)CC3(CCCCC3)CC2=O)cc1
65.9 µM

Now, please, on to the next compound.
Quote CAKI-1 renal TGI for entry Cc1nc(C)c(C(=O)NNC(N)=S)cc1C(=O)NNC(N)=S .
> 100 µM
